Let's go through some recorded IC50 values for Serine/threonine-protein kinase mTOR (Homo sapiens) together.
assayMetric: IC50 (nM)

1) CC(C)c1cc(C(=O)N2CCc3c(sc4nc(N5CCOC[C@@H]5C)nc(N5CCOC[C@@H]5C)c34)C2)c(O)cc1O
73
2) CC(C)c1cc(C(=O)N2CCc3c(sc4nc(-c5ccc(NC(=O)Nc6cccc(Cl)c6)cc5)nc(N5CCOCC5)c34)C2)c(O)cc1O
82
3) CC(C)c1cc(C(=O)N2CCc3c(sc4nc(-c5ccc(NC(=O)Nc6ccc(F)c(Cl)c6)cc5)nc(N5CCOCC5)c34)C2)c(O)cc1O
29
4) CC(C)c1cc(C(=O)N2CCc3c(sc4nc(-c5ccc(NC(=O)Nc6cccc(C(F)(F)F)c6)cc5)nc(N5CCOCC5)c34)C2)c(O)cc1O
218
5) CC(C)c1cc(C(=O)N2CCc3c(sc4nc(-c5ccc(NC(=O)Nc6cc(Cl)cc(Cl)c6)cc5)nc(N5CCOCC5)c34)C2)c(O)cc1O
106
